# protocol_text: Pharmacokinetics measurements in rats
# Type: in vivo
# protocol_conditions: rat; SD male rats, PO 5 mg/kg, plasma, mean
measurement_label: AUC(0-t) (ng·h/mL)

(A) COCc1cc(C(=O)O)c2nc(C[C@H](OC3CCCC3)[C@H](O)c3cc(OC)c(C)c(OC)c3)sc2c1
(B) COc1cc([C@@H](O)[C@H](Cc2nc3c(C(=O)O)cc(CO)cc3s2)OC2CCCC2)cc(OC)c1C
// which entry reports the smaller AUC(0-t), A or B ? Selection: enter the item's label. B
(B: 1790 ng·h/mL, A: 2890 ng·h/mL)

====

The compounds listed here are annotated with their IC50.
# target_desc: human LPA1 (Homo sapiens)
# Sequence (Q92633 whole entry): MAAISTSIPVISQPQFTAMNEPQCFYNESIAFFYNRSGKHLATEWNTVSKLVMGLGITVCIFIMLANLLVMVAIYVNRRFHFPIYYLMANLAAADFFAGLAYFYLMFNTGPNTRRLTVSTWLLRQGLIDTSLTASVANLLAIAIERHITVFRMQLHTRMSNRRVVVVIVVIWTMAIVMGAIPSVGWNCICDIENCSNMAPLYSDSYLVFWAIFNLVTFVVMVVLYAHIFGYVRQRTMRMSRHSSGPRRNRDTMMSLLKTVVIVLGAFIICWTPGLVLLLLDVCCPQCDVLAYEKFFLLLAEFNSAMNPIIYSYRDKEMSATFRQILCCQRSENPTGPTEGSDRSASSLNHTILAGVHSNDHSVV
# protocol_text: In vitro LPA1 calcium flux antagonist assay
# protocol_conditions: CHO-K1 cells overexpressing human LPA1 and G15a, LPA challenge at EC80, FLIPR calcium mobilization

Below, each entry is followed by its recorded IC50 result.
Provide the reported IC50 (system: human LPA1 (Homo sapiens)) for COc1cc([C@@H](O)[C@H](Cc2nc3c(C(=O)O)cc(N(C)C)cc3s2)OC2CCCC2)cc(OC)c1C [Compound 106] < 10 nM

Provide the reported IC50 (system: human LPA1 (Homo sapiens)) for COc1cc([C@@H](O)[C@H](Cc2nc3c(C(=O)O)cc(CO)cc3s2)OC2CCCC2)cc(OC)c1C [Compound 103] 10 to 100 nM

Provide the reported IC50 (system: human LPA1 (Homo sapiens)) for CCOc1cc(C(=O)O)c2nc(C[C@H](OC3CCCC3)[C@H](O)c3cc(OC)cc(OC)c3)sc2c1 [Compound 111] 10 to 100 nM

Provide the reported IC50 (system: human LPA1 (Homo sapiens)) for CCOc1cc(C(=O)O)c2nc(C[C@H](OC3CCCC3)[C@H](O)c3ccc(C)c(OC)c3)sc2c1 [Compound 101] < 10 nM

Provide the reported IC50 (system: human LPA1 (Homo sapiens)) for COc1cc([C@@H](O)[C@H](Cc2cc3c(N(C)C)ccc(C(=O)O)n3n2)OC2CCCC2)cc(OC)c1C [Compound 110] > 100 nM

---
Provide the reported IC50 (system: human LPA1 (Homo sapiens)) for CCOc1ccc(C(=O)O)n2nc(C[C@H](OC3CCCC3)[C@H](O)c3cc(OC)c(C)c(OC)c3)cc12 [Compound 113] 10 to 100 nM

Provide the reported IC50 (system: human LPA1 (Homo sapiens)) for COc1cc(C(=O)O)c2nc(C[C@H](OC3CCCC3)[C@H](O)c3ccc(C(F)F)c(OC)c3)sc2c1 [Compound 102] < 10 nM

Provide the reported IC50 (system: human LPA1 (Homo sapiens)) for CNc1ccc(C(=O)O)n2nc(C[C@H](OC3CCCC3)[C@H](O)c3cc(OC)c(C)c(OC)c3)cc12 [Compound 108] 10 to 100 nM

Provide the reported IC50 (system: human LPA1 (Homo sapiens)) for CCOc1cc(C(=O)O)c2nc(C[C@H](OC3CCCC3)[C@H](O)c3ccc(C(F)F)c(OC)c3)sc2c1 [Compound 112] 10 to 100 nM

Provide the reported IC50 (system: human LPA1 (Homo sapiens)) for CCOc1ccc(C(=O)O)c2nc(C[C@H](OC3CCCC3)[C@H](O)c3cc(OC)c(C)c(OC)c3)sc12 [Compound 109] < 10 nM

Provide the reported IC50 (system: human LPA1 (Homo sapiens)) for CNc1cc(C(=O)O)c2nc(C[C@H](OC3CCCC3)[C@H](O)c3cc(OC)c(C)c(OC)c3)sc2c1 [Compound 105] < 10 nM
